# EXPERIMENT_SUMMARY: In vitro blood-brain barrier permeation assay (PAMPA-BBB)
# Assay type: in vitro ADME
# TEST_PARAMETERS: pig, pH 7.4, porcine brain lipid, PBS:ethanol (70:30), 25 °C, read-out: PAMPA-BBB permeability in the CNS (Pe)
ATTRIBUTE_MEASURED: Papp at 120 min, 100 μg mL^−1 (×10⁻⁶ cm/s)
API: value field is a number in ×10⁻⁶ cm/s; no unit string.

The following compounds have reported results that may help.
{"columns": ["STRUCTURE_SMILES", "Papp at 120 min, 100 μg mL^−1 / ×10⁻⁶ cm/s"],
 "data": [
  ["COc1ccc2oc(C(=O)Nc3ccc(CN(C)Cc4ccccc4)cc3)cc(=O)c2c1", 17.1],
  ["COc1cc2[nH]c(C(=O)Nc3cccc(CN(C)Cc4ccccc4)c3)cc(=O)c2cc1OC", 15.1],
  ["COc1cc2[nH]c(C(=O)Nc3ccc(CN(C)Cc4ccccc4)cc3)cc(=O)c2cc1OC", 19.1],
  ["CN(Cc1ccccc1)Cc1ccc(NC(=O)c2cc(=O)c3cc(O)ccc3o2)cc1", 6.8],
  ["COc1ccc2[nH]c(C(=O)Nc3ccc(CN(C)Cc4ccccc4)cc3)cc(=O)c2c1", 24.8],
  ["COc1cc2oc(C(=O)Nc3ccc(CN(C)Cc4ccccc4)cc3)cc(=O)c2cc1OC", 19.1],
  ["COc1cc(OC)c2c(=O)cc(C(=O)Nc3ccc(CN(C)Cc4ccccc4)cc3)oc2c1", 19.4],
  ["COc1ccc2c(=O)cc(C(=O)Nc3ccc(CN(C)Cc4ccccc4)cc3)[nH]c2c1", 21.7],
  ["CN(Cc1ccccc1)Cc1ccc(NC(=O)c2cc(=O)c3c(O)cc(O)cc3o2)cc1", 14.7],
  ["CN(Cc1ccccc1)Cc1ccc(NC(=O)c2cc(=O)c3cc(O)ccc3[nH]2)cc1", 8.4]
]}

Q. Given COc1cccc2[nH]c(C(=O)Nc3ccc(CN(C)Cc4ccccc4)cc3)cc(=O)c12 , state its recorded Papp at 120 min, 100 μg mL^−1.
A. 23

Q. Next compound up: COc1cc2oc(C(=O)Nc3cccc(CN(C)Cc4ccccc4)c3)cc(=O)c2cc1OC
A. 18.8

Q. Next compound up: CN(Cc1ccccc1)Cc1ccc(NC(=O)c2cc(=O)c3cc(O)c(O)cc3[nH]2)cc1
A. 8.8

====

Items are presented alongside their recorded pIC50.
# TEST_TARGET: recombinant hMAO-A (Homo sapiens, UniProt P21397)
# Sequence (P21397 whole entry): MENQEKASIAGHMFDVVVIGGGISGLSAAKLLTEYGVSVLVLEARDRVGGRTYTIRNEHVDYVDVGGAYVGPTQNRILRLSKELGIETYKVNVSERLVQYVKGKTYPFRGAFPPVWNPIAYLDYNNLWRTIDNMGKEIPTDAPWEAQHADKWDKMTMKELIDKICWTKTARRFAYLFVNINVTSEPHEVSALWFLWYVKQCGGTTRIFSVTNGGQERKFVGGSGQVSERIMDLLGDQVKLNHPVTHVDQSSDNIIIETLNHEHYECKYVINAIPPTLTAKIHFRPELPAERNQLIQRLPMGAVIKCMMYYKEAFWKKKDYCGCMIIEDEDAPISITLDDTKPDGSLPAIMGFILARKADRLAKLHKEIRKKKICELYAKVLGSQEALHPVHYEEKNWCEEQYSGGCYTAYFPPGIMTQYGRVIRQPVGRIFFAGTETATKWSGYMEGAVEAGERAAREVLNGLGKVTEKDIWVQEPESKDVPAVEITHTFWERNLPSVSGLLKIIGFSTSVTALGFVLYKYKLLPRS
# EXPERIMENT_SUMMARY: biochemical
# TEST_PARAMETERS: mean ± SEM (n = 3); 100 µM highest concentration tested
pIC50: −log10 of the molar value.

The following molecules have reported results that may help.
{"columns": ["MOLECULE", "ATTRIBUTE_MEASURED", "VALUE_MEASURED"],
 "data": [
  ["COc1cc(OC)c2c(=O)cc(C(=O)Nc3ccc(CN(C)Cc4ccccc4)cc3)oc2c1 [Compound 3]", "pIC50", "< 4.00"],
  ["COc1cc2oc(C(=O)Nc3cccc(CN(C)Cc4ccccc4)c3)cc(=O)c2cc1OC [Compound 6]", "pIC50", "< 4.00"]
]}

Q. Given CN(Cc1ccccc1)Cc1ccc(NC(=O)c2cc(=O)c3cc(O)c(O)cc3[nH]2)cc1 [Compound 12] , state its recorded pIC50.
A. < 4.00
